Reference source for all entries: ChEMBL document CHEMBL5038613

# experimentalDetails: Antiproliferative activity against HUVEC assessed as inhibition of cell growth at 20 uM measured after 24 hrs by EdU incorporation based fluorescence microscopic analysis
# Type: toxicity
# recordedConditions: human, HUVEC cells, read-out: Activity
assayReadout: inhibition at 24 h, 20 µM (%)
All answers are understood in %, so give the number only.

For reference, reported inhibition at 24 h, 20 µM for CCCC(O)Cn1ncc(C(=O)OCC)c1NC(=O)NCc1cccc(C(F)(F)F)c1 (stereo unspecified) stands at 30
